Below, each of the compounds is paired with its reported Kd value.
Molecular target: kinase domain protein of RC kinase (RCK) (Homo sapiens)
Sequence (Q56UN5 1061-1324 limits assumed): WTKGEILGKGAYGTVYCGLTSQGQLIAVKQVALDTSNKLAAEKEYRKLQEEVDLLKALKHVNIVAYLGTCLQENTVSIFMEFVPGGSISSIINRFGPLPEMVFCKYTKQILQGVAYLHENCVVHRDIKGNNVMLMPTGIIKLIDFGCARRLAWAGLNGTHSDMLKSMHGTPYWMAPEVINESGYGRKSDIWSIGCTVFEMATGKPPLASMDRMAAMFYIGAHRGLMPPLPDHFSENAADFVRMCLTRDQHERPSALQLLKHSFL

Compound: NC(=O)c1c(Nc2ccc(-c3ccccc3)cc2)n[nH]c1NCc1ccc(O)cc1 [reference compound]
Kd: 0.05 to 0.1 µM
//
Compound: Cc1cc(CNc2[nH]nc(Nc3ccc(NC(=O)c4ccc(F)cc4)cc3)c2C(N)=O)cc(C)c1O
Kd: 0.1 to 1 µM
//
Compound: NC(=O)c1c(Nc2ccc(N3CCC(Cl)CC3)cc2)n[nH]c1NCc1ccc(O)cc1 [reference compound]
Kd: < 0.05 µM
//
Compound: NC(=O)c1c(Nc2ccc(N)cc2)n[nH]c1NCc1ccc(O)cc1 [reference compound]
Kd: 0.1 to 1 µM
//
Compound: COc1ccc(C(=O)Nc2ccc(Nc3n[nH]c(NCc4cc(C)c(O)c(C)c4)c3C(N)=O)cc2)cc1
Kd: 0.05 to 0.1 µM
//
Compound: NC(=O)c1c(Nc2ccc(CN3CCOCC3)cc2)n[nH]c1NCc1ccc(O)cc1 [reference compound]
Kd: < 0.05 µM
//
Compound: NC(=O)c1c(Nc2ccc(-c3cccnc3)cc2)n[nH]c1NCc1ccc(O)cc1 [reference compound]
Kd: < 0.05 µM
//
Compound: Cc1cc(Nc2n[nH]c(NCc3ccc(O)cc3)c2C(N)=O)cnc1N1CCN(C)CC1 [reference compound]
Kd: < 0.05 µM
